Tested on: MS2 coat protein
procedureText: apparent KD of MS2 coat protein; designed switch direction (-1 OFF switch, 1 ON switch): -1; higher = weaker reporter binding
measurementConditions: input ligand: none
Decision: apparent KD of MS2 coat protein compared against 60 nM; not below it gives Satisfied, below it gives Not satisfied.

- AAAAGAUAAGGAUAUUGAAGGUUCGACAUGAGGAUCACCCAUGUUAUGUUGGAAAAGGGACAAGAAGGUAUGAAAU [salish99_ex5_r4_202] (Eterna round: R97, puzzle: Exclusion 5): Not satisfied
- GCUGGUCGAGGAUAUGCAUAUACUGGAUACAGUGGAAGGUCACAUGAGGAUCACCCAUGUAGAAGGCGACCAGC [EX2 #36] (Eterna round: R97, puzzle: Exclusion 2): Satisfied
- UACAUGAGGAUCACCCAUGUUUUGUCGUGUAUGGUAUUUAUCUAGGAUAUCAAUUGGUUUAUUUAUGAGAAGGAGAAUAUUAAU [JMF's solution 57] (Eterna round: R96, puzzle: Exclusion NG 3): Not satisfied
- GCAGUGCGAGGAUAUACAUGAGGAUCACCCAUGUGAGAAUAAGAAGUGAGGAAGAAAAGUAGAAGGCGCGUUGG [Mat - Exclusion 3 - Mod of Salish D66] (Eterna round: R96, puzzle: Exclusion 3): Not satisfied
- UGGUAGUGAGGAUAUCCAAUAUAUGACAUGAGGAUCACCCAUGUUUCCACUCGUACCUCCGGAGAAGGCACAUGGU [Ex5 #54] (Eterna round: R97, puzzle: Exclusion 5): Satisfied
- UAUUAGCAAGUGAGAUCCGACAUGAGGAUCACCCAUGUGCUCGUCUUAUAAGGUACUGUGACAAAAGUCACGGUACC [Elimod 2 - Jieux - Sensor, turn-off variant 1] (Eterna round: R97, puzzle: Sensor, turn-off variant 1): Satisfied
- CGAUGAGGAGUGAGGAUAUCGUGUUCGAAAGAACGUGAGAAGGCACAUGAGGAUCACCCAUGUGAUCCUCAUGG [Omei Ex4B A23] (Eterna round: R97, puzzle: Brourd's mod of Exclusion 4): Satisfied
- GAUUAACAAGCGAGAUCCCACAUGAGGAUCACCCAUGUGCUCGUCUUAUAAGGUACUGUGACGAAAGUCACGGUACC [Mat - Sensor, turn-off var - Eli Mod - D5] (Eterna round: R97, puzzle: Sensor, turn-off variant 1): Not satisfied
- UAUGAUUUAGGAUAUUGUACUGCUGACAUGAGGAUCACCCAUGUAUGCUAACUCGGCCGUCGAGAAGGAGAUUAUG [BotMod 29 - Jieux - Exclusion 5] (Eterna round: R97, puzzle: Exclusion 5): Not satisfied
